Assay: activity coefficient (dimensionless); of the first substance listed, at infinite dilution; xn = mol fraction of the nth substance listed
Conditions: 353.15 K; 101.33 kPa; Liquid; Chromatography; x1 = 0
What activity coefficient was measured for each of the following?
Field format: numeric only.

INPUT: What measured activity coefficient goes with C1CCCCC1 [cyclohexane] + CCCCCCn1cc[n+](C)c1C.O=S(=O)([N-]S(=O)(=O)C(F)(F)F)C(F)(F)F ?
OUTPUT: 4.74

INPUT: Request: CCCCCCC [heptane] + CCCCCCn1cc[n+](C)c1C.O=S(=O)([N-]S(=O)(=O)C(F)(F)F)C(F)(F)F
OUTPUT: 8.83

INPUT: Next up: CCCCCCCCCC [decane] + CCCCCCn1cc[n+](C)c1C.O=S(=O)([N-]S(=O)(=O)C(F)(F)F)C(F)(F)F
OUTPUT: 20.1

INPUT: What do you have for CCCCCC [hexane] + CCCCCCn1cc[n+](C)c1C.O=S(=O)([N-]S(=O)(=O)C(F)(F)F)C(F)(F)F ?
OUTPUT: 6.78

INPUT: c1ccccc1 [benzene] + CCCCCCn1cc[n+](C)c1C.O=S(=O)([N-]S(=O)(=O)C(F)(F)F)C(F)(F)F ?
OUTPUT: 0.76

INPUT: Request: C1CCOC1 [tetrahydrofuran] + CCCCCCn1cc[n+](C)c1C.O=S(=O)([N-]S(=O)(=O)C(F)(F)F)C(F)(F)F
OUTPUT: 0.58

INPUT: // same read-out, input: Cc1cccc(C)c1 [1,3-dimethylbenzene] + CCCCCCn1cc[n+](C)c1C.O=S(=O)([N-]S(=O)(=O)C(F)(F)F)C(F)(F)F
OUTPUT: 1.47

INPUT: Same thing, different compound: ClC(Cl)Cl [trichloromethane] + CCCCCCn1cc[n+](C)c1C.O=S(=O)([N-]S(=O)(=O)C(F)(F)F)C(F)(F)F
OUTPUT: 0.82

INPUT: Then what about the compound C1=CCCCC1 [cyclohexene] + CCCCCCn1cc[n+](C)c1C.O=S(=O)([N-]S(=O)(=O)C(F)(F)F)C(F)(F)F ?
OUTPUT: 2.93

INPUT: // repeat for ClCCl [dichloromethane] + CCCCCCn1cc[n+](C)c1C.O=S(=O)([N-]S(=O)(=O)C(F)(F)F)C(F)(F)F and report
OUTPUT: 0.7

INPUT: Repeat with ClC(Cl)(Cl)Cl [tetrachloromethane] + CCCCCCn1cc[n+](C)c1C.O=S(=O)([N-]S(=O)(=O)C(F)(F)F)C(F)(F)F
OUTPUT: 2.09

INPUT: Next entry: CC(C)=O [acetone] + CCCCCCn1cc[n+](C)c1C.O=S(=O)([N-]S(=O)(=O)C(F)(F)F)C(F)(F)F
OUTPUT: 0.46

INPUT: Same read-out for Cc1ccccc1 [toluene] + CCCCCCn1cc[n+](C)c1C.O=S(=O)([N-]S(=O)(=O)C(F)(F)F)C(F)(F)F ?
OUTPUT: 1.05

INPUT: Here is the next compound: CCCCC [pentane] + CCCCCCn1cc[n+](C)c1C.O=S(=O)([N-]S(=O)(=O)C(F)(F)F)C(F)(F)F
OUTPUT: 5.21

INPUT: Can you check CCc1ccccc1 [ethylbenzene] + CCCCCCn1cc[n+](C)c1C.O=S(=O)([N-]S(=O)(=O)C(F)(F)F)C(F)(F)F next?
OUTPUT: 1.42

INPUT: Next compound: CC#N [acetonitrile] + CCCCCCn1cc[n+](C)c1C.O=S(=O)([N-]S(=O)(=O)C(F)(F)F)C(F)(F)F
OUTPUT: 0.48

INPUT: Now this one: CCCCCCCC [octane] + CCCCCCn1cc[n+](C)c1C.O=S(=O)([N-]S(=O)(=O)C(F)(F)F)C(F)(F)F
OUTPUT: 9.16

INPUT: What do you have for Cc1ccc(C)cc1 [1,4-dimethylbenzene] + CCCCCCn1cc[n+](C)c1C.O=S(=O)([N-]S(=O)(=O)C(F)(F)F)C(F)(F)F ?
OUTPUT: 1.55

INPUT: # iterate: CCOC(C)=O [ethyl acetate] + CCCCCCn1cc[n+](C)c1C.O=S(=O)([N-]S(=O)(=O)C(F)(F)F)C(F)(F)F
OUTPUT: 0.93

INPUT: Now the compound Cc1ccccc1C [1,2-dimethylbenzene] + CCCCCCn1cc[n+](C)c1C.O=S(=O)([N-]S(=O)(=O)C(F)(F)F)C(F)(F)F
OUTPUT: 1.24

INPUT: Same question for CCCCCCCCC [nonane] + CCCCCCn1cc[n+](C)c1C.O=S(=O)([N-]S(=O)(=O)C(F)(F)F)C(F)(F)F please.
OUTPUT: 15.1

INPUT: CC1CCCCC1 [methylcyclohexane] + CCCCCCn1cc[n+](C)c1C.O=S(=O)([N-]S(=O)(=O)C(F)(F)F)C(F)(F)F ?
OUTPUT: 5.62
